Biological target: Estrogen receptor (Mus musculus) (UniProt O08537+P19785)
Sequence (O08537 whole entry, looked up): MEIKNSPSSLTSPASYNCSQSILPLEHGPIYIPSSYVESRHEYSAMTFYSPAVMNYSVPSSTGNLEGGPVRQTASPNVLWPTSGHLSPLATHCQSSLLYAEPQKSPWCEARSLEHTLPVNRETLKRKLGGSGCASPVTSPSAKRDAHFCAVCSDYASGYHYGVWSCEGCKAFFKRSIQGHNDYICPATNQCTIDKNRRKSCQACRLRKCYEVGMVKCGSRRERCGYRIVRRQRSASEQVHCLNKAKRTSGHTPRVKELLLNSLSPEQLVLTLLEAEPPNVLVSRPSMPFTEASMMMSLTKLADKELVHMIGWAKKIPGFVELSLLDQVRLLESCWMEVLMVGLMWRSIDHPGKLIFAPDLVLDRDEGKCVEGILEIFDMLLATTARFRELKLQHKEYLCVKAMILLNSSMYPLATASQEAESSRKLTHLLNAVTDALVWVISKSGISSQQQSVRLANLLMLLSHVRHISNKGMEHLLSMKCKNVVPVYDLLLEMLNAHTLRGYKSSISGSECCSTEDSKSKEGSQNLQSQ
Sequence (P19785 whole entry, looked up): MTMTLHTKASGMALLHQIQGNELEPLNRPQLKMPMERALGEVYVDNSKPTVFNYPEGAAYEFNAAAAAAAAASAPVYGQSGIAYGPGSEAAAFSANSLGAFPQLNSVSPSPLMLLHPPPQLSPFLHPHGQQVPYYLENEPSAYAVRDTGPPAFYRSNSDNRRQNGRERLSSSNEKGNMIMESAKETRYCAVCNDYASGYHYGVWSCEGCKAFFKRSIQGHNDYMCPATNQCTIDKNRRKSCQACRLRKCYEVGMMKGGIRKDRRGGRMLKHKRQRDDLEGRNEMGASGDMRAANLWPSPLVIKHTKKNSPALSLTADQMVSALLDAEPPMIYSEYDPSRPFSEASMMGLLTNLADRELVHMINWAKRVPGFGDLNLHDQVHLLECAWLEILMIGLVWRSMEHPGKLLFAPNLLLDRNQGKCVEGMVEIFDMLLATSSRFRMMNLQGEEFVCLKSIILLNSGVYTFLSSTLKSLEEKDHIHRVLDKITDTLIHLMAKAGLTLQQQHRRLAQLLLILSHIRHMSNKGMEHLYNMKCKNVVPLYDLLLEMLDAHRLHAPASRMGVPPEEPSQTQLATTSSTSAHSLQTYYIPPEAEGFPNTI
Experiment: Anti-uterotrophic effect in mice at 125 ug
Assay type: functional
Please respond with reported Relative uterine weight for every item in the list.
Numbers only.

Below, each entry is followed by its recorded Relative uterine weight result.
COMPOUND	Relative uterine weight
CC1=C(c2ccc(O)cc2)C(CCCCCCNCc2ccccc2)c2ccc(O)cc21 (stereo not drawn)	40.8
CCN(CC)CCCCCCC1C(c2ccc(O)cc2)=C(C)c2cc(O)ccc21 (stereo not drawn)	30.9
CNCCCCCCC1C(c2ccc(O)cc2)=C(C)c2cc(O)ccc21 (stereo not drawn)	33.7
CC1=C(c2ccc(O)cc2)C(CCCCCCN2CCCCC2)c2ccc(O)cc21 (stereo not drawn)	22.3
CC1=C(c2ccc(O)cc2)C(CCCCN2CCCC2)c2ccc(O)cc21 (stereo not drawn)	25.5
CC1=C(c2ccc(O)cc2)C(CCCCCCN2CCOCC2)c2ccc(O)cc21 (stereo not drawn)	18

Batch: Relative uterine weight for all items listed.
1. CC1=C(c2ccc(O)cc2)C(CCCCCCN)c2ccc(O)cc21 (stereo not drawn)
2. CC1=C(c2ccc(O)cc2)C(CCCCCCN2CCCC2)c2ccc(O)cc21 (stereo not drawn)

Response line:
1: 16.2; 2: 8.9
